For each of the compounds below, state its IC50.
- TESTED_SYSTEM: human NAAA (Homo sapiens, UniProt Q02083)
- Construct: soluble fraction after freeze/thaw
- Sequence (Q02083 29-359): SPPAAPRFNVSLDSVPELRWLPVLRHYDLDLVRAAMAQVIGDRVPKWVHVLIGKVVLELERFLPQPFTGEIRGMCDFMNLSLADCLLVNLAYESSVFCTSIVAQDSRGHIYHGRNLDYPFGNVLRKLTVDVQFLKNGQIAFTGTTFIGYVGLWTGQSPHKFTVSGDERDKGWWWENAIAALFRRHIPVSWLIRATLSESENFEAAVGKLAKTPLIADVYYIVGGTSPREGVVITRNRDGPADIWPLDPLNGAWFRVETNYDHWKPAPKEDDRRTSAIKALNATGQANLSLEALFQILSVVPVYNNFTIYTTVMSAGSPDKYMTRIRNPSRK
- PROCEDURE_TEXT: Fluorogenic h-NAAA assay
- MEASUREMENT_CONDITIONS: recombinant HEK-hNAAA preparation
Number only, in nM; omit the unit.

# return recorded IC50 for input O=C(CCCc1ccccc1)N[C@H]1CNC1=O [Example 32]
110000

Specify measured IC50 for CCCCCCCCCC(=O)N[C@H]1CNC1=O [Example 23, N-[(3S)-2-Oxoazetidin-3-yl]-decanamide] .
86

Output IC50 of O=C(CCCCCc1ccccc1)N[C@H]1CNC1=O [Example 31]
13400

Look up and report measured IC50 for this entry: CCCCCCCC(=O)N[C@H]1CNC1=O [Example 22, N-[(3S)-2-Oxoazetidin-3-yl]-octanamide]
930

Give the measured IC50 for CCCCCCCC(C)(C)C(=O)N[C@H]1CNC1=O [Example 37]
758

State its IC50 for this compound: O=C(CCCCc1ccccc1)N[C@H]1CNC1=O [Example 25]
33900

Tell me IC50 reported for CCCCCCCCC(=O)N[C@@H]1C(=O)N[C@H]1C [Example 28]
380

Please supply the value of reported IC50 for the item CCCCC/C=C/CC(=O)N[C@H]1CNC1=O [Example 5]
1340

Quickly give me recorded IC50 for O=C(CCCCCCC1CCCCC1)N[C@H]1CNC1=O [Example 30]
210

Fill in IC50 for record CCCc1ccc(CC(=O)N[C@H]2CNC2=O)cc1 [Example 35]
15600

====

Please go through the items and note down their pIC50.
- TESTED_SYSTEM: r-NAAA (Rattus norvegicus, UniProt Q5KTC7)
- Sequence (Q5KTC7 34-362): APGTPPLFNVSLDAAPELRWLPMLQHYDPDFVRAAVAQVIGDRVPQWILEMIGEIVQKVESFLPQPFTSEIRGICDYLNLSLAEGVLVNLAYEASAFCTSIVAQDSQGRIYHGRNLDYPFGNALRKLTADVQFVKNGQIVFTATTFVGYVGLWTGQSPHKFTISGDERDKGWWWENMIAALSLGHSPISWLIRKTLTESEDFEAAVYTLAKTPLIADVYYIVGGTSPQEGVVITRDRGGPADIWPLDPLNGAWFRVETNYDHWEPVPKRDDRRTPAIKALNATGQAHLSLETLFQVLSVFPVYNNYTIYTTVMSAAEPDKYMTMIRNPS
The value called pIC50 is obtained by taking minus log10 of the concentration in mol/L.

Provide measured pIC50 on r-NAAA (Rattus norvegicus, UniProt Q5KTC7) for CCCCCCCCC(=O)N[C@H]1CNC1=O [Example 3, N-[(3S)-2-Oxoazetidin-3-yl]-nonanamide] please.
6.62

Fetch value of pIC50 on r-NAAA (Rattus norvegicus, UniProt Q5KTC7) for O=C(CCCCCCc1ccccc1)N[C@H]1CNC1=O .
5.68

Quote r-NAAA (Rattus norvegicus, UniProt Q5KTC7) pIC50 for entry CCCCC/C=C/CC(=O)N[C@H]1CNC1=O .
5.64

Supply pIC50 measured with r-NAAA (Rattus norvegicus, UniProt Q5KTC7) for O=C(CCCCCC1CCCCC1)N[C@H]1CNC1=O .
6.89

====

For each entry below, report its inhibition at 3 µM value.
- TESTED_SYSTEM: r-NAAA (Rattus norvegicus, UniProt Q5KTC7)
- Construct: Lysosomal NAAA protein preparation was obtained by homogenizing male Sprague-Dawley rat lungs; tissue Charles River; host or cells: male Sprague-Dawley rat lung, soluble lysosomal fraction
- Sequence (Q5KTC7 34-362): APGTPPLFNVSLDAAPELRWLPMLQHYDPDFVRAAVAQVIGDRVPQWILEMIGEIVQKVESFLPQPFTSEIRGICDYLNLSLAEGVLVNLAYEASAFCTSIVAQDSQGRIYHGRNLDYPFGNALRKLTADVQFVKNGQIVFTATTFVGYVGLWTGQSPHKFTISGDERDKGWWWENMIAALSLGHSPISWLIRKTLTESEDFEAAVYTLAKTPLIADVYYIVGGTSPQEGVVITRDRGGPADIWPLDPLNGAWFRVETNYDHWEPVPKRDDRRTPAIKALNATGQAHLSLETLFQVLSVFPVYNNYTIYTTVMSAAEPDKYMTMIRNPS
- PROCEDURE_TEXT: UPLC/MS r-NAAA assay
- Format: biochemical
- MEASUREMENT_CONDITIONS: @ 3 μM; read-out: r-NAAA UPLC/MS assay % inhib.
Record the value in %, omitting the unit from your answer.

Given O=C(CCCCCCc1ccccc1)N[C@@H]1CNC1=O , respond with its inhibition at 3 µM.
30

Specify measured inhibition at 3 µM for O=C(N[C@@H]1CNC1=O)c1ccc(-c2ccccc2)cc1 .
10

State its inhibition at 3 µM: O=C(N[C@H]1CNC1=O)c1ccc(-c2ccccc2)cc1
15

Assign inhibition at 3 µM to the following record: CCCCCCCCC(=O)N(C)[C@H]1CNC1=O
40

Return inhibition at 3 µM for the following compound: O=C(N[C@@H]1CNC1=O)c1ccc(OCc2ccccc2)cc1
10
